Numbers sourced from paper PMC9320607.

- Tested on: HCT116 Sec61α-WT cells
- TEST_SUMMARY: Resazurin-based cell viability assay in HCT116 Sec61α-WT cells
- Parameters: species or system human
- CONDITION_SUMMARY: Homo sapiens, HCT-116; Table 1; HCT116 Sec61α-WT cells; read-out: Cytotoxicity HCT-116 Cells (IC50)
pIC50: −log10 of the molar value.
Documented pIC50 across a set of molecules

MOLECULE	pIC50
C/C=C(\C)C(=O)O[C@@H]1[C@@H](O)[C@H](O[C@H]2[C@H](O[C@H](CCC)CCCCC)O[C@H](C)[C@H](OC(C)=O)[C@@H]2O)O[C@H](COC(=O)CCC(=O)CCCCC)[C@H]1OC(=O)/C=C/c1ccccc1 [analogue 2]	7.39
C=CCCN(C)C(=O)CCC(=O)OCC1OC(OC2C(OC(CC=C)CCCCC)OC(C)C(OC(C)=O)C2O)C(O)C(OC(=O)C(C)=CC)C1OC(=O)C=Cc1ccccc1 (stereo not shown) [analogue 5]	7.39
C=CCCCC(=O)CCC(=O)OC[C@H]1O[C@@H](O[C@H]2[C@H](O[C@H](CC=C)CCCCC)O[C@H](C)[C@H](OC(C)=O)[C@@H]2O)[C@H](O)[C@@H](OC(=O)/C(C)=C/C)[C@@H]1OC(=O)/C=C/c1ccccc1 [analogue 1]	6.77
C/C=C(\C)C(=O)O[C@@H]1[C@@H](O)[C@@H]2O[C@H]3[C@H](O[C@@H](CCCCC)CCCCCOC(=O)CCC(=O)OC[C@@H](O2)[C@H]1OC(=O)/C=C/c1ccccc1)O[C@H](C)[C@H](OC(C)=O)[C@@H]3O [analogue 22]	7.15

----------
- System: MDA-MB-231 cells
- TEST_SUMMARY: Resazurin-based cytotoxicity assay in MDA-MB-231 cells
- Type: cell-based, human
- CONDITION_SUMMARY: Homo sapiens, MDA-MB-231, MDA-MB-231 cells; at least three independent experiments; read-out: IC50 ± SD, ring-open
Documented IC50 across a set of compounds

COMPOUND	DISPLAY_UNIT	IC50
C=CCCCC(=O)CCC(=O)OCC1OC(OC2C(OC(CC=C)CCCCC)OC(C)C(OC(C)=O)C2O)C(O)C(OC(=O)C(C)=CC)C1O (stereo not shown)	µM	5.6
C=CCCCC(=O)CCC(=O)OCC1OC(OC2C(OC(CC=C)CCCCC)OC(C)C(OC(C)=O)C2O)C(O)C(OC(=O)C(C)=CC)C1OC(=O)c1ccccc1 (stereo not shown)	µM	4.61
C=CCCCC(=O)CCC(=O)OCC1OC(OC2C(OC(CC=C)CCCCC)OC(C)C(OC(C)=O)C2O)C(O)C(OC(=O)C(C)=CC)C1OC(=O)CCc1ccccc1 (stereo not shown)	µM	2.17
C=CCCCC(=O)CCC(=O)OCC1OC(OC2C(OC(CC=C)CCCCC)OC(C)C(OC(C)=O)C2O)C(O)C(OC(=O)C(C)=CC)C1OC(=O)C(C)=CC (stereo not shown)	µM	2.74
C=CCCN(C)C(=O)CCC(=O)OCC1OC(OC2C(OC(CC=C)CCCCC)OC(C)C(OC(C)=O)C2O)C(O)C(OC(=O)C(C)=CC)C1OC(=O)C=Cc1ccccc1 (stereo not shown)	µM	0.043
C=CCCCC(=O)CCC(=O)OCC1OC(OC2C(OC(CC=C)CCCCC)OC(C)C(O)C2O)C(O)C(OC(=O)C(C)=CC)C1OC(=O)C=Cc1ccccc1 (stereo not shown)	µM	3.89
C#CCOc1ccc(C=CC(=O)OC2C(COC(=O)CCC(=O)CCCC=C)OC(OC3C(OC(CC=C)CCCCC)OC(C)C(OC(C)=O)C3O)C(O)C2OC(=O)C(C)=CC)cc1 (stereo not shown)	µM	0.168
C=CCCCC(=O)CCC(=O)OC[C@H]1O[C@@H](O[C@H]2[C@H](O[C@H](CC=C)CCCCC)O[C@H](C)[C@H](OC(C)=O)[C@@H]2O)[C@H](O)[C@@H](OC(=O)/C(C)=C/C)[C@@H]1OC(=O)/C=C/c1ccccc1	µM	0.059
C=CCCCCCCC(=O)OCC1OC(OC2C(OC(CC=C)CCCCC)OC(C)C(OC(C)=O)C2O)C(O)C(OC(=O)C(C)=CC)C1OC(=O)C=Cc1ccccc1 (stereo not shown)	µM	0.205
C=CCCCC(=O)CCC(=O)OCC1OC(OC2C(OC(CC=C)CCCCC)OC(C)C(OC(C)=O)C2O)C(O)C(O)C1OC(=O)C=Cc1ccccc1 (stereo not shown)	µM	6.32

----------
- TARGET_OF_ASSAY: Sec61-mediated protein translocation (membrane integration of Ii) (Canis lupus familiaris)
- Construct: cell-free translation system supplemented with ER microsomes derived from canine pancreas; from tissue; host or cells: canine pancreas ER microsomes (nuclease-treated); the Ii substrate was translated in vitro from T7-transcribed RNA
- Sequence (P60058 whole entry): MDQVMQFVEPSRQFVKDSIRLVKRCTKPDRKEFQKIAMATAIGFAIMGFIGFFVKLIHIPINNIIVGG
- Sequence (P38377 2-476): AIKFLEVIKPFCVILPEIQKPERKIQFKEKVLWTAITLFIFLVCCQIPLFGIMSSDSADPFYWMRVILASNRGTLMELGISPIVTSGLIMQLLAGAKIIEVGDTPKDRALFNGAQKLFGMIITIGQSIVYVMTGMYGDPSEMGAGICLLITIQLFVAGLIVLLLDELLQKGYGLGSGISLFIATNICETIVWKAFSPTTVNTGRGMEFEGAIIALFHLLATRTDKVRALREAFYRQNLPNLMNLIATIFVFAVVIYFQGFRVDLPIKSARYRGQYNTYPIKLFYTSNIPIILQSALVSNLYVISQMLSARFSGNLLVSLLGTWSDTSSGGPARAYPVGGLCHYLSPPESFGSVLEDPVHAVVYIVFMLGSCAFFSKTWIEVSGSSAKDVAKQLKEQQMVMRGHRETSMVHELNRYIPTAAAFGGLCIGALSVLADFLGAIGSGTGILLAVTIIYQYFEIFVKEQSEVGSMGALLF
- Sequence (P60467 2-96, further chain): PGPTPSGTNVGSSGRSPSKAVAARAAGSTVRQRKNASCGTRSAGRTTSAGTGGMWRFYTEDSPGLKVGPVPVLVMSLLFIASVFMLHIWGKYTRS
- TEST_SUMMARY: In vitro membrane insertion assay of Ii with ER microsomes
- Assay type: biochemical, canine
- CONDITION_SUMMARY: Table 1; Ii membrane integration; read-out: In Vitro Translocation Inhibition (IC50)
- From the text: Having previously established that the principal molecular basis for the cytotoxicity of Ipom-F is its strong, yet reversible, binding to Sec61α and the resultant wide-ranging blockade of Sec61-mediated protein translocation at the ER [13], we sought evidence that this mechanism also underlies the cytotoxic effects of 1 and other open-chain analogues. […]
Documented IC50 across a set of compounds
ENDPOINT_NAME: IC50 (nM)

COMPOUND	DISPLAY_UNIT	RECORDED_VALUE
C/C=C(\C)C(=O)O[C@@H]1[C@@H](O)[C@@H]2O[C@H]3[C@H](O[C@@H](CCCCC)CCCCCOC(=O)CCC(=O)OC[C@@H](O2)[C@H]1OC(=O)/C=C/c1ccccc1)O[C@H](C)[C@H](OC(C)=O)[C@@H]3O [analogue 22]	nM	334
C=CCCCC(=O)CCC(=O)OC[C@H]1O[C@@H](O[C@H]2[C@H](O[C@H](CC=C)CCCCC)O[C@H](C)[C@H](OC(C)=O)[C@@H]2O)[C@H](O)[C@@H](OC(=O)/C(C)=C/C)[C@@H]1OC(=O)/C=C/c1ccccc1 [analogue 1]	nM	562
C/C=C(\C)C(=O)O[C@@H]1[C@@H](O)[C@H](O[C@H]2[C@H](O[C@H](CCC)CCCCC)O[C@H](C)[C@H](OC(C)=O)[C@@H]2O)O[C@H](COC(=O)CCC(=O)CCCCC)[C@H]1OC(=O)/C=C/c1ccccc1 [analogue 2]	nM	202
C=CCCN(C)C(=O)CCC(=O)OCC1OC(OC2C(OC(CC=C)CCCCC)OC(C)C(OC(C)=O)C2O)C(O)C(OC(=O)C(C)=CC)C1OC(=O)C=Cc1ccccc1 (stereo not shown) [analogue 5]	nM	291

----------
- System: MDA-MB-231 cells
- TEST_SUMMARY: Resazurin-based cytotoxicity assay in MDA-MB-231 cells
- Type: cell-based, human
- CONDITION_SUMMARY: Homo sapiens, MDA-MB-231, 72 h, MDA-MB-231 cells, 72 h; read-out: IC50 (cytotoxicity)
ENDPOINT_NAME: IC50

MOLECULE	TARGET_OF_ASSAY	RECORDED_VALUE
C=CCCCCCCC(=O)OCC1OC(OC2C(OC(CC=C)CCCCC)OC(C)C(OC(C)=O)C2O)C(O)C(OC(=O)C(C)=CC)C1OC(=O)C=Cc1ccccc1 (stereo not shown)	MDA-MB-231 cells	~205 nM
C#CCOc1ccc(C=CC(=O)OC2C(COC(=O)CCC(=O)CCCC=C)OC(OC3C(OC(CC=C)CCCCC)OC(C)C(OC(C)=O)C3O)C(O)C2OC(=O)C(C)=CC)cc1 (stereo not shown)	MDA-MB-231 cells	~168 nM
C=CCCCC(=O)CCC(=O)OC[C@H]1O[C@@H](O[C@H]2[C@H](O[C@H](CC=C)CCCCC)O[C@H](C)[C@H](OC(C)=O)[C@@H]2O)[C@H](O)[C@@H](OC(=O)/C(C)=C/C)[C@@H]1OC(=O)/C=C/c1ccccc1	MDA-MB-231 cells	~60 nM
C=CCCN(C)C(=O)CCC(=O)OCC1OC(OC2C(OC(CC=C)CCCCC)OC(C)C(OC(C)=O)C2O)C(O)C(OC(=O)C(C)=CC)C1OC(=O)C=Cc1ccccc1 (stereo not shown)	MDA-MB-231 cells	~43 nM
